The values you see were collected from patent US20230183219A1.

Target: Human M4 (Homo sapiens, UniProt P08173)
Construct: Human or rat M4 cDNA, along with the chimeric G protein Gqi5, were transfected into Chinese hamster ovary (CHO-K1) cells
Sequence (P08173 whole entry): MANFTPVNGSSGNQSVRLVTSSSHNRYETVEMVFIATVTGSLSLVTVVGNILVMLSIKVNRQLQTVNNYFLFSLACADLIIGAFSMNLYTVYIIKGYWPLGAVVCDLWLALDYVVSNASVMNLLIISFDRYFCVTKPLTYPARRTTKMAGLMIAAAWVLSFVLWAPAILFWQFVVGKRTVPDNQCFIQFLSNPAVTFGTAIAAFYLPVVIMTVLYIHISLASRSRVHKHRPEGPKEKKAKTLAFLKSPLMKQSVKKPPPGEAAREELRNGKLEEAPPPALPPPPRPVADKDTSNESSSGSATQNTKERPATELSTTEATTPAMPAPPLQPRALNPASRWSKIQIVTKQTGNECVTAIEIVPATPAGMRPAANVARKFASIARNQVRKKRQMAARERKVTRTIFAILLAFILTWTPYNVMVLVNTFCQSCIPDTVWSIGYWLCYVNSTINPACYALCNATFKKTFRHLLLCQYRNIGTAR
Assay: mAChR M4 cell-based functional assay (calcium flux, decrease of EC80 acetylcholine response)
Settings: M4/Gqi5/CHO-K1 cells; decrease of response to EC80 acetylcholine
pIC50: −log10 of the molar value.
Each entry gets Criterion not met if its pIC50 stays under 7, and Criterion met if its pIC50 is 7 or above.

Solved cases (3 shown):
{"columns": ["Compound", "Answer Label"],
 "data": [
  ["COc1ccc(-c2cc(C(F)(F)F)c(N[C@H]3C[C@@H]4CN(CC5CCOCC5)C[C@@H]4C3)nn2)c(F)c1", "Criterion not met"],
  ["Cc1ccc(F)cc1-c1cc(C#N)c(N[C@H]2C[C@@H]3CN(C[C@H]4CC5CCC4O5)C[C@@H]3C2)nn1 (stereo partly shown)", "Criterion met"],
  ["Cn1cc2cc(-c3cc(C#N)c(N[C@H]4C[C@@H]5CN(CC6CCCOC6)C[C@@H]5C4)nn3)ccc2n1 (single isomer, unassigned) [Example 159]", "Criterion met"]
]}

Problem: Textbook exercise: given the entry `Cc1c(-c2cc(C(F)(F)F)c(N[C@H]3C[C@@H]4CN(CC5CCOCC5)C[C@@H]4C3)nn2)ccc2nn(C)cc12` , state whether its pIC50 is greater than or equal to 7.
Solution: Criterion met

Problem: Threshold query (pIC50 >= 7) on `Fc1ccc(F)c(-c2cc(C(F)(F)F)c(N[C@H]3C[C@@H]4CN(Cc5ccccn5)C[C@@H]4C3)nn2)c1`
Solution: Criterion not met

Problem: pIC50 >= 7 for Cc1ccc(F)cc1-c1cc(C(F)(F)F)c(N[C@H]2C[C@@H]3CN(CC4CCCCO4)C[C@@H]3C2)nn1 (single isomer, unassigned) [Example 119] ?
Solution: Criterion met

Problem: For this compound, is measured pIC50 7 or higher? `Cc1ccc(F)cc1-c1cc(C(F)(F)F)c(O[C@H]2C[C@@H]3CN(CC4CCOCC4)C[C@@H]3C2)nn1`
Solution: Criterion not met

Problem: # check: pIC50 of `[2H][C@@]1(Oc2nnc(-c3cc(F)ccc3C)cc2C(F)(F)F)C[C@H]2CN(Cc3ccccn3)C[C@H]2C1` is greater than or equal to 7
Solution: Criterion not met
